Target: DnaC helicase (Staphylococcus aureus, UniProt Q9AQH7)
Sequence (Q9AQH7 whole entry): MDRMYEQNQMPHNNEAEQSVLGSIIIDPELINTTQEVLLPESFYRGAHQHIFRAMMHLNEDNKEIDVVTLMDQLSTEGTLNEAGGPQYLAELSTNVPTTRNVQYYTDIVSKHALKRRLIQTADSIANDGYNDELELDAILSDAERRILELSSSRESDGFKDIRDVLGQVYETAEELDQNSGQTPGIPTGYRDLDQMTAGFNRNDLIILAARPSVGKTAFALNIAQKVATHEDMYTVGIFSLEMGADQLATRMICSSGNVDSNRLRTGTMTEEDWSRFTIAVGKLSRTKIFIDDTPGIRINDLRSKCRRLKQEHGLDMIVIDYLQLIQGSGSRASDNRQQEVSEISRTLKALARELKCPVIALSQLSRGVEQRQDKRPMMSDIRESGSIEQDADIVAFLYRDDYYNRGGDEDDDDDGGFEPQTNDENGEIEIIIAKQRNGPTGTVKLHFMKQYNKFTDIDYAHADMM
assayEndpoint: IC50

>>> measuredresult("Oc1ccc(O)c(-c2ccc(-c3nnc(S)o3)o2)c1")
"> 100 µM"
>>> measuredresult("Cc1noc(NS(=O)(=O)c2ccc(NC(=O)CSc3nnc(-c4ccccc4)c(-c4ccccc4)n3)cc2)c1C")
"47 µM"
>>> measuredresult("CCC1(C)Cc2ccccc2-c2[nH]c3nnc(S)n3c(=O)c21 (stereo unspecified)")
"> 100 µM"
>>> measuredresult("COc1ccc(Nc2nc(N)nc(-c3cc4ccccc4o3)n2)cc1")
"21 µM"
>>> measuredresult("COc1cc(/C=C2\\SC(=S)N(c3cccc(Cl)c3)C2=O)cc(OC)c1O")
"3 µM"
>>> measuredresult("Cc1c(CCC(=O)O)c(=O)oc2c(C)c(OCc3cccc4ccccc34)ccc12")
"65 µM"
